The measured values listed here are drawn from PubChem BioAssay AID248.

test system: L1210 leukemia ip in BDF1 mice, survival T/C; test: NCI In Vivo Anticancer Drug Screen. Data for tumor model L1210 Leukemia (intraperitoneal) in B6D2F1 (BDF1) mice; details: endpoint: mean survival time; dose: 400.0 mg/kg/injection; schedule: Q04DX002 (ip); vehicle: saline with Tween-80; higher = longer survival
Inconclusive results and toxic doses are left out.
Endpoint name: T/C

# annotated cases, reported T/C shown
{"Compound": "Cc1cccc(P(=O)(c2ccccc2)c2ccccc2)c1 (tested in a mixture with another compound)", "T/C": "88 % of control"}
{"Compound": "CCOC(=O)c1ccc(N=C2C(C)(C)C(=Nc3ccc(C(=O)OCC)cc3)C2(C)C)cc1", "T/C": "87 % of control"}
{"Compound": "COc1ccc(S(=O)Nc2ccccc2)cc1 (configuration not stated)", "T/C": "112 % of control"}
{"Compound": "O=C(Nc1ccccc1)N1CCN=C1C1CCCc2ccccc21 (configuration not stated)", "T/C": "86 % of control"}
{"Compound": "Cc1cccc(C)c1NC(=S)NNC(=O)c1ccncc1", "T/C": "101 % of control"}

Query: For the compound shown here, "CCOc1ccccc1NC(=O)Oc1ccc(SC)c(C)c1" , give the reported T/C.
Response: 103 % of control

Query: Same read-out for "CCN(CCC#N)C(=S)Nc1ccc(C)c(C)c1" ?
Response: 86 % of control

Query: What about this compound? CCOC(=O)C(CCC#N)(CCC(=O)OC)C(C)=O (configuration not stated)
Response: 94 % of control

Query: Check COC1CCC(/C(C#N)=C/C2CCC3OCOC3C2)CC1 (configuration not stated) too.
Response: 94 % of control

Query: Field entry: CCCC(C)OS(=O)(=O)c1ccc(Br)cc1 (configuration not stated)
Response: 97 % of control

Query: Proceed to "CCCCNC(=S)NN=C(N)N"
Response: 92 % of control

Query: Ok, now "CCNC(=S)Nc1ccc(OCC)cc1"
Response: 100 % of control

###

tested on: L1210 leukemia ip in BDF1 mice, survival T/C; assay: NCI In Vivo Anticancer Drug Screen. Data for tumor model L1210 Leukemia (intraperitoneal) in B6D2F1 (BDF1) mice; conditions: endpoint: mean survival time; dose: 100.0 mg/kg/injection; schedule: Q01DX009 (ip); vehicle: Klucel (hydroxypropylcellulose) (HPC); higher = longer survival
Inconclusive results and toxic doses are left out.
# T/C values compiled below

Query: # query: T/C of entry CCOC(=O)C(C)C(OCC)OCC (stereo unspecified)
Response: 96 % of control

Query: Clc1ccc(C2CC3(CC(c4ccc(Cl)cc4)N2)SSC2(CC(c4ccc(Cl)cc4)NC(c4ccc(Cl)cc4)C2)S3)cc1 (stereo unspecified) ?
Response: 98 % of control

Query: Please answer likewise for "O=C(Nc1ccccc1Cl)OCCOc1ccccc1"
Response: 97 % of control

Query: Now the same for "CCN(CC)CCCC#CCN1CCCC1"
Response: 100 % of control

Query: Please answer likewise for "CCc1oc2cc([N+](=O)[O-])ccc2c1C(OC(C)=O)OC(C)=O"
Response: 100 % of control

Query: For "CCCCCCCCC(=O)Nc1nc2nc[nH]c2c(=O)[nH]1" then?
Response: 94 % of control

###

system: L1210 leukemia ip in BDF1 mice, survival T/C; experiment: NCI In Vivo Anticancer Drug Screen. Data for tumor model L1210 Leukemia (intraperitoneal) in B6D2F1 (BDF1) mice; conditions: endpoint: mean survival time; dose: 6.25 mg/kg/injection; schedule: Q01DX009 (ip); vehicle: saline
Inconclusive results and toxic doses are left out. Cut-off read from the data, not from the text of the source: active = T/C of 150% or more; inactive = T/C below 125%.
Bench note: report the call from 1 (active), 0 (inactive)

Answered examples (3):
{"Compound": "Cc1c2ccccc2c(CSC(=N)N)c2ccccc12", "Label value": 0}
{"Compound": "Cc1cc(C(=O)NC(CCC(=O)O)C(=O)O)cc(C)c1N(C)Cc1cnc2nc(N)nc(N)c2n1 (stereo not drawn)", "Label value": 1}
{"Compound": "c1ccc(CCN2CCCCC2)nc1", "Label value": 0}

Query: Hi, do you know how CCCCNC(=O)C1CC2c3cccc4c3c(cn4C)CC2N(C)C1 (stereo not drawn) came out in this test?
Response: 0
